target.of.assay: Serotonin receptor (2b and 2c) (Homo sapiens) (UniProt P41595+P28335)
protocol: Selectivity for 5HT2C over 5HT2B
Type: protein assay
Class membership depends on Selectivity ratio alone; the intervals are low value (below 30), medium value (30 to below 70), high value (70 or more)

Previously resolved entries follow.
[ask] Pick a category. Item: CCOc1cc2c(cc1Cl)[C@H](C)[C@@H]1CNC[C@H]21
[reply] medium value

[ask] # repeat for COc1cc2c(cc1Br)[C@H](C)[C@@H]1CNC[C@H]21
[reply] high value

Continuing:
[ask] Pick a category. Item: Cc1cc2c(cc1Cl)[C@H]1CNC[C@H]1[C@H]2C
[reply] low value

[ask] # repeat for COc1cc2c(cc1Cl)[C@H](C)[C@@H]1CNC[C@H]21
[reply] high value

[ask] # repeat for C[C@H]1c2cc(Cl)ccc2[C@H]2CNC[C@H]21
[reply] high value

[ask] # repeat for C[C@H]1c2c(ccc(Cl)c2Cl)[C@H]2CNC[C@H]21
[reply] high value

[ask] # repeat for C[C@H]1c2cc(Cl)c(O)cc2[C@H]2CNC[C@H]21
[reply] medium value

[ask] # repeat for C[C@@H]1c2cc(Cl)c(Cl)cc2[C@H]2CNC[C@@H]12
[reply] low value

[ask] # repeat for Cc1cc2c(cc1Cl)[C@H](C)[C@@H]1CNC[C@H]21
[reply] medium value

[ask] # repeat for Clc1ccc2c(c1)C[C@@H]1CNC[C@H]21
[reply] low value

[ask] # repeat for C[C@H]1c2cc(Cl)c(Cl)cc2[C@H]2CNC[C@H]21
[reply] medium value

###

protocol: Oral bioavailability in rat at 10.6 mg/kg, po
Type: ADME, organism-based
particulars: in vivo
metric.name: bioavailability (%)
Value expressed in %; do not type the unit.

[ask] Suppose we examine the compound COc1cc2c(cc1Cl)[C@H](C)[C@@H]1CNC[C@H]21 ; what bioavailability value has been reported?
[reply] 40

###

protocol: Clearance in dog at 1.0 mg/kg, iv
Format: ADME, organism-based, Canis lupus familiaris
Parameters: dose 1 mg/kg, route intravenous
particulars: in vivo
metric.name: clearance

[ask] Suppose we examine the compound COc1cc2c(cc1Cl)[C@H](C)[C@@H]1CNC[C@H]21 ; what clearance value has been reported?
[reply] 39 mL/min/kg

###

protocol: Ratio of drug level in brain against plasma measured as AUC cortex/AUC plasma at 1.2 mg/kg, iv
Type: ADME, organism-based
Set-up: dose 1.2 mg/kg, route intravenous
particulars: rat, read-out: BPR
metric.name: Kp
Answer field: number only, no words.

[ask] Suppose we examine the compound COc1cc2c(cc1Cl)[C@H](C)[C@@H]1CNC[C@H]21 ; what Kp value has been reported?
[reply] 15

###

protocol: Half life in dog at 1.0 mg/kg, iv
Format: ADME, organism-based, Canis lupus familiaris
Design: dose 1 mg/kg, route intravenous
particulars: in vivo
metric.name: half-life (h)
Value expressed in h; do not type the unit.

[ask] Suppose we examine the compound COc1cc2c(cc1Cl)[C@H](C)[C@@H]1CNC[C@H]21 ; what half-life value has been reported?
[reply] 3.5

###

target.of.assay: 5-hydroxytryptamine receptor 2C (Homo sapiens, UniProt P28335)
Sequence (P28335 whole entry): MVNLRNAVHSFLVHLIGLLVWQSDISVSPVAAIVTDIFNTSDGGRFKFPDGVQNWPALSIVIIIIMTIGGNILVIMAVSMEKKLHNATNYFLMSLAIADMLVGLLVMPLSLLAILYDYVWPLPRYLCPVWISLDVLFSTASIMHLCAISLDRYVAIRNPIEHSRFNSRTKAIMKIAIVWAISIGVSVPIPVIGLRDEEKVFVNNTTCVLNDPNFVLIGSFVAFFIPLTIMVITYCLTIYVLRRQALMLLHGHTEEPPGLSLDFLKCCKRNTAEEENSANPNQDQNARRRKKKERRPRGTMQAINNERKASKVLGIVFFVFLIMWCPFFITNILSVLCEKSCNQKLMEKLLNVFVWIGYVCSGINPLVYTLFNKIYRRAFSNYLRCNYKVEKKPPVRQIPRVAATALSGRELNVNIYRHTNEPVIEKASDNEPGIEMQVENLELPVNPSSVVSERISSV
pKi reference
Notebook: values listed as pKi are -log10 of the concentration (mol/L).

Here are 3 compounds together with their reported answers.
[ask] Suppose we examine the compound Cc1cc2c(cc1Cl)[C@H](C)[C@@H]1CNC[C@H]21 ; what pKi value has been reported?
[reply] 6.81

[ask] # repeat for CC1c2cc(Cl)c(Cl)cc2[C@H]2CNC[C@@H]12 (mixture of isomers)
[reply] 6.99

[ask] # repeat for Cc1cc2c(cc1Cl)[C@H]1CNC[C@H]1[C@H]2C
[reply] 6.87

Continuing:
[ask] Suppose we examine the compound Cc1ccc2c(c1)[C@H]1CNC[C@H]1C2C (mixture of isomers) ; what pKi value has been reported?
[reply] 5.48
